Provenance of the data: patent US11434226B2

Catalogue of solubility readings, one per entry.
# EXPERIMENT_NOTES: Comparison of solubility of compound Z and its salts
# Assay type: physicochemical
# PROTOCOL_CONDITIONS: thermodynamic from solid; water (deionized); read-out: Solubility

| COMPOUND | solubility |
| --- | --- |
| CCCOc1ccc(NC(=O)CN2CCN(C)CC2)cc1-c1nc(CC)c(CC)c(=O)[nH]1.O=S(=O)(O)O [sulfate of compound Z] | > 20.6 mg/mL |

Request: Field request: solubility | item: CCCOc1ccc(NC(=O)CN2CCN(C)CC2)cc1-c1nc(CC)c(CC)c(=O)[nH]1.O=C(O)C(O)C(O)C(=O)O [tartrate of compound Z]
Result: > 153 mg/mL

Request: Which solubility is reported for this compound? CCCOc1ccc(NC(=O)CN2CCN(C)CC2)cc1-c1nc(CC)c(CC)c(=O)[nH]1
Result: 1.5 mg/mL

Request: GET /values?readout=solubility&item= CCCOc1ccc(NC(=O)CN2CCN(C)CC2)cc1-c1nc(CC)c(CC)c(=O)[nH]1.O=C(O)/C=C\C(=O)O [maleate of compound Z]
Result: 5.8 mg/mL

Request: Fill in: solubility of CCCOc1ccc(NC(=O)CN2CCN(C)CC2)cc1-c1nc(CC)c(CC)c(=O)[nH]1.Cl [hydrochlorate of compound Z] is ___
Result: > 25 mg/mL

Request: GET /values?readout=solubility&item= CC(=O)O.CCCOc1ccc(NC(=O)CN2CCN(C)CC2)cc1-c1nc(CC)c(CC)c(=O)[nH]1 [acetate of compound Z]
Result: 14 mg/mL

Request: Look up solubility for this compound: CCCOc1ccc(NC(=O)CN2CCN(C)CC2)cc1-c1nc(CC)c(CC)c(=O)[nH]1.O=C(O)/C=C/C(=O)O [fumarate of compound Z]
Result: > 26.6 mg/mL

Request: Looking for the measured solubility of CCCOc1ccc(NC(=O)CN2CCN(C)CC2)cc1-c1nc(CC)c(CC)c(=O)[nH]1.O=C(O)CCC(=O)O [succinate of compound Z] , can you help?
Result: > 24.8 mg/mL

Request: Record request: solubility value, item CCCOc1ccc(NC(=O)CN2CCN(C)CC2)cc1-c1nc(CC)c(CC)c(=O)[nH]1.CS(=O)(=O)O [methanesulfonate of compound Z]
Result: > 23.8 mg/mL

* * *

# purity per record follows
# EXPERIMENT_NOTES: Chemical stability by stress testing (high temperature, high humidity, illumination)
# Format: physicochemical
# PROTOCOL_CONDITIONS: high temperature (60° C.), 10 days
Numeric answer only, unit % assumed.

Look over these answered cases.
| COMPOUND | UNITS_SYMBOL | purity |
| --- | --- | --- |
| CCCOc1ccc(NC(=O)CN2CCN(C)CC2)cc1-c1nc(CC)c(CC)c(=O)[nH]1.Cl [hydrochlorate of compound Z] | % | 99.71 |
| CCCOc1ccc(NC(=O)CN2CCN(C)CC2)cc1-c1nc(CC)c(CC)c(=O)[nH]1.CS(=O)(=O)O [methanesulfonate of compound Z] | % | 99.49 |
| CCCOc1ccc(NC(=O)CN2CCN(C)CC2)cc1-c1nc(CC)c(CC)c(=O)[nH]1.O=S(=O)(O)O [sulfate of compound Z] | % | 99.64 |

Pending compound:
Request: Look at this compound and give its reported purity. CCCOc1ccc(NC(=O)CN2CCN(C)CC2)cc1-c1nc(CC)c(CC)c(=O)[nH]1
Result: 99.36

* * *

# EXPERIMENT_NOTES: Chemical stability by stress testing (high temperature, high humidity, illumination)
# Type: physicochemical
# PROTOCOL_CONDITIONS: High humidity (25° C., 92.5% RH), 5 days
VALUE_KIND: characters

| COMPOUND | MEASURED_RESULT |
| --- | --- |
| CCCOc1ccc(NC(=O)CN2CCN(C)CC2)cc1-c1nc(CC)c(CC)c(=O)[nH]1 | White |
| CCCOc1ccc(NC(=O)CN2CCN(C)CC2)cc1-c1nc(CC)c(CC)c(=O)[nH]1.Cl [hydrochlorate of compound Z] | White |

* * *

# EXPERIMENT_NOTES: Chemical stability by stress testing (high temperature, high humidity, illumination)
# Assay type: physicochemical
# PROTOCOL_CONDITIONS: high temperature (60° C.), 5 days
VALUE_KIND: characters

| MOLECULE | VALUE_KIND | MEASURED_RESULT |
| --- | --- | --- |
| CCCOc1ccc(NC(=O)CN2CCN(C)CC2)cc1-c1nc(CC)c(CC)c(=O)[nH]1 | characters | White |
| CCCOc1ccc(NC(=O)CN2CCN(C)CC2)cc1-c1nc(CC)c(CC)c(=O)[nH]1.Cl [hydrochlorate of compound Z] | characters | White |
| CCCOc1ccc(NC(=O)CN2CCN(C)CC2)cc1-c1nc(CC)c(CC)c(=O)[nH]1.CS(=O)(=O)O [methanesulfonate of compound Z] | characters | White |

* * *

# EXPERIMENT_NOTES: Chemical stability by stress testing (high temperature, high humidity, illumination)
# Type: physicochemical
# PROTOCOL_CONDITIONS: illumination (4500 lx ± 500 lx), 5 days
Parameter purity: see the listing below.

| COMPOUND | purity |
| --- | --- |
| CCCOc1ccc(NC(=O)CN2CCN(C)CC2)cc1-c1nc(CC)c(CC)c(=O)[nH]1.CS(=O)(=O)O [methanesulfonate of compound Z] | 99.72% |
| CCCOc1ccc(NC(=O)CN2CCN(C)CC2)cc1-c1nc(CC)c(CC)c(=O)[nH]1 [compound Z] | 99.37% |
| CCCOc1ccc(NC(=O)CN2CCN(C)CC2)cc1-c1nc(CC)c(CC)c(=O)[nH]1.O=S(=O)(O)O [sulfate of compound Z] | 97.43% |

Would you kindly look at the next entry?
Request: Please report the recorded purity for CCCOc1ccc(NC(=O)CN2CCN(C)CC2)cc1-c1nc(CC)c(CC)c(=O)[nH]1.Cl [hydrochlorate of compound Z] .
Result: 99.79%

* * *

# EXPERIMENT_NOTES: Comparison of compound appearance and characters (odor)
# Format: physicochemical
VALUE_KIND: odor

Consider the reported odor for these molecules:
| MOLECULE | odor |
| --- | --- |
| CCCOc1ccc(NC(=O)CN2CCN(C)CC2)cc1-c1nc(CC)c(CC)c(=O)[nH]1.O=C(O)CCC(=O)O [succinate of compound Z] | No bad smell |
| CCCOc1ccc(NC(=O)CN2CCN(C)CC2)cc1-c1nc(CC)c(CC)c(=O)[nH]1.O=C(O)/C=C\C(=O)O [maleate of compound Z] | No bad smell |
| CCCOc1ccc(NC(=O)CN2CCN(C)CC2)cc1-c1nc(CC)c(CC)c(=O)[nH]1.O=C(O)C(O)C(O)C(=O)O [tartrate of compound Z] | No bad smell |
| CCCOc1ccc(NC(=O)CN2CCN(C)CC2)cc1-c1nc(CC)c(CC)c(=O)[nH]1.Cl [hydrochlorate of compound Z] | No bad smell |

# ---- query molecule ----
Request: Look up odor: CCCOc1ccc(NC(=O)CN2CCN(C)CC2)cc1-c1nc(CC)c(CC)c(=O)[nH]1.CS(=O)(=O)O [methanesulfonate of compound Z]
Result: No bad smell

* * *

# EXPERIMENT_NOTES: Chemical stability by stress testing (high temperature, high humidity, illumination)
# Type: physicochemical
# PROTOCOL_CONDITIONS: illumination (4500 lx ± 500 lx), 5 days

| MOLECULE | characters |
| --- | --- |
| CCCOc1ccc(NC(=O)CN2CCN(C)CC2)cc1-c1nc(CC)c(CC)c(=O)[nH]1.Cl [hydrochlorate of compound Z] | White |
| CCCOc1ccc(NC(=O)CN2CCN(C)CC2)cc1-c1nc(CC)c(CC)c(=O)[nH]1.CS(=O)(=O)O [methanesulfonate of compound Z] | White |

* * *

# EXPERIMENT_NOTES: Chemical stability by stress testing (high temperature, high humidity, illumination)
# Type: physicochemical
# PROTOCOL_CONDITIONS: high temperature (60° C.), 5 days
VALUE_KIND: purity (%)
Enter your answer as a number in %; do not include the unit.

Some compounds with known purity results, for comparison:
| COMPOUND | UNITS_SYMBOL | purity |
| --- | --- | --- |
| CCCOc1ccc(NC(=O)CN2CCN(C)CC2)cc1-c1nc(CC)c(CC)c(=O)[nH]1.Cl [hydrochlorate of compound Z] | % | 99.65 |
| CCCOc1ccc(NC(=O)CN2CCN(C)CC2)cc1-c1nc(CC)c(CC)c(=O)[nH]1.CS(=O)(=O)O [methanesulfonate of compound Z] | % | 99.54 |
| CCCOc1ccc(NC(=O)CN2CCN(C)CC2)cc1-c1nc(CC)c(CC)c(=O)[nH]1.O=S(=O)(O)O [sulfate of compound Z] | % | 99.59 |

Kindly consider the entry below.
Request: Entry CCCOc1ccc(NC(=O)CN2CCN(C)CC2)cc1-c1nc(CC)c(CC)c(=O)[nH]1 has what purity?
Result: 99.69
